Biological target: Neurogenic locus notch homolog protein 3 (Homo sapiens)
Assay: small molecules binding NOTCH3 protein – biochemical, 635/667 nm fluorescence, primary screen (AID 1096)
Conditions: small-molecule microarray, 635 nm fluorescence, higher = more signal
Entry flag: met if composite z-score reaches -0.2; not met if it does not.

Solved entries:
Compound	Label
C[C@]1(C(=O)NCC(F)(F)F)c2ccccc2C(=O)N(Cc2cc(F)cc(C(F)(F)F)c2)[C@H]1c1ccc(CO)cc1	not met
Cc1ccc(N2C(=O)c3ccccc3[C@@H](C(=O)NCC(C)C)[C@@H]2c2ccc(CO)cc2)nc1	not met
NC(=O)NCC#Cc1ccc2c(c1)[C@]1(C(=O)N2)[C@H](c2ccccc2OCCO)N2[C@H](c3ccccc3)[C@H](c3ccccc3)OC(=O)[C@H]2[C@@H]1C(=O)N1CCCCCCC1	met

Request: Say whether COc1ccc([Si](C)(C)[C@@H]2[C@@H](CCO)O[C@]3(C(=O)N(Cc4cccc(N5CCCCC5=O)c4)c4ccccc43)[C@H]2C)cc1 shows composite z-score of -0.2 or more.
Result: met

Request: Would you mind doing [N-]=[N+]=NCc1ccccc1[C@@H]1OC(c2ccc(OCCCO)cc2)=N[C@]1(Cc1ccccc1)C(=O)O as well?
Result: met

Request: Now give it for COCCOC(=O)N1C(=O)[C@@]2(c3cc(C#Cc4ccc(OC)cc4)ccc31)[C@H](c1ccc(OCCO)cc1)N1[C@H](c3ccccc3)[C@H](c3ccccc3)OC(=O)[C@H]1[C@@H]2C(=O)N1CCc2cc(OC)c(OC)cc2C1 too.
Result: met

---

composite z-score values by entry
Biological target: Alpha-bungarotoxin (Bungarus multicinctus) (UniProt P60615)
Sequence (P60615 whole entry, looked up): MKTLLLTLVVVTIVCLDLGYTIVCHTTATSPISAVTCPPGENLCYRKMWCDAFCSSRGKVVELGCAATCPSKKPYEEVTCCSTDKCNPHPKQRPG
Test: compounds binding labelled alpha-BTX control protein – biochemical, small-molecule microarray, Alexa647 label, 635/667 nm fluorescence, artefact control for SMM control protein annotation, profiling panel (AID 1117)
Settings: alpha-BTX-A647 binding fluorescence, higher = more signal
Give your answer as a number; write no unit.

See these solved cases before continuing.
Molecule	composite z-score
O=C1O[C@H](c2ccccc2)[C@H](c2ccccc2)N2[C@H]1[C@@H](C(=O)N1CCCCCCC1)[C@]1(C(=O)Nc3ccc(C#CC4=CCCCC4)cc31)[C@H]2c1ccc(O)cc1	5.18
C=C(COC)/C(=C/C[C@H](OC(C)=O)c1ccccc1OCCO)c1cnc2ccccc2c1	0.625
CN(C)CCCC[C@@H]1NC(=O)[C@@H]2C[C@H](C(=O)NCCCCCCN)[C@H](c3ccc(O)cc3)N2C1=O	0.629
COCCOC(=O)N1C(=O)[C@@]2(c3cc(C#CCC(C(=O)OC)C(=O)OC)ccc31)[C@H](c1ccc(OCCO)cc1)N1[C@H](c3ccccc3)[C@H](c3ccccc3)OC(=O)[C@H]1[C@@H]2C(=O)NC[C@H](O)c1ccccc1	1.18

Request: State its composite z-score on Alpha-bungarotoxin (Bungarus multicinctus) (UniProt P60615): COCCCNC(=O)[C@@]1(Sc2ccc(C)cc2)CC(=O)N(Cc2ccccc2)[C@@H]1c1ccc(CO)cc1
Result: -0.941

Request: Please do the same for O=C1C2C=CC(C(O)c3cccc4ccccc34)N(n3cnnc3)C2C(=O)N1Cc1ccccc1 (configuration not stated) as well.
Result: 0.274

Request: Further, for Cc1ccc(S[C@]2(C(=O)NCCCN(C)C)CC(=O)N(Cc3ccccc3)[C@@H]2c2ccc(CO)cc2)cc1 ?
Result: 0.75
